Readings of IC50 for the listed compounds
- System: FaDu
- experiment summary: IC50 cell-based assay, adherent cells, FaDu
- reported conditions: Homo sapiens, Pharynx, squamous cell, 72 hours, read-out: IC50 of Compounds in Adherent Cell Types

>  <structure smiles string>
O=C(Nc1cc(C(F)(F)F)cc(C(F)(F)F)c1)c1cc(-c2ccc(Br)cc2)oc1C(F)(F)F

>  <measured value>
< 5 µM

$$$$
>  <structure smiles string>
O=C(Nc1cc(F)cc(C(F)(F)F)c1)c1cc(-c2ccc(Cl)cc2)oc1C(F)(F)F

>  <measured value>
5 to 10 µM

$$$$
>  <structure smiles string>
O=C(Nc1cc(C(F)(F)F)cc(C(F)(F)F)c1)c1cc(-c2ccccc2)oc1C(F)(F)F

>  <measured value>
< 5 µM

$$$$
>  <structure smiles string>
O=C(Nc1cc(C(F)(F)F)cc(C(F)(F)F)c1)c1cc(-c2ccc(Cl)cc2)oc1C(F)(F)F

>  <measured value>
< 5 µM

$$$$
>  <structure smiles string>
O=C(Nc1cc(F)cc(C(F)(F)F)c1)c1cc(-c2ccccc2)oc1C(F)(F)F

>  <measured value>
5 to 10 µM

$$$$

Attention now turns to another entry.
// query # input compound: O=C(Nc1cc(F)cc(C(F)(F)F)c1)c1cc(-c2ccc(Br)cc2)oc1C(F)(F)F ; wanted: its IC50
// result 5 to 10 µM
